Species: Rattus norvegicus
Experimental Protocol: Open TG-GATES - Regimen: Daily Repeat
Type: toxicity, organism-based, Sprague-Dawley
Design: regimen Daily Repeat, gender Male, age 6 weeks
Experimental Conditions: in vivo, po, 1000 mg/kg, […], tissue Plasma, route gavage, dose level High, time 7 day
Quantity Name: TG (mg/dL)
Numbers only, in mg/dL.

Consider the worked cases shown below.
Query (molecule): O=C(O)c1ccccc1Nc1ccccc1 [FENAMIC ACID] ; field requested: TG
75.3

Query (molecule): CC(=O)[C@@]1(O)CC[C@H]2[C@@H]3C=C(Cl)C4=CC(=O)CC[C@]4(C)[C@H]3CC[C@@]21C [CHLORMADINONE] ; field requested: TG
136

Query (molecule): CCCCNC(=O)NS(=O)(=O)c1ccc(C)cc1 [TOLBUTAMIDE] ; field requested: TG
94.2

Please look at the following molecule next.
Query (molecule): CC(S)C(=O)NCC(=O)O (centres undefined) [TIOPRONIN] ; field requested: TG
90.8
